- Tested on: Fibroblast
- procedure-details: Multiplex assay against human fibroblast
- Assay type: toxicity, cell-based
- protocol-conditions: 48 h, 1 µM, compound concentration 1 uM, replicate 2
Catalogue of Population Mitochondria Different-Phenotype (%) readings, one per entry.
property-measured: Population Mitochondria Different-Phenotype (%)

molecule=CN1CCC(C(=O)c2cccc(NC(=O)c3c(F)cc(F)cc3F)n2)CC1 value_measured=5
molecule="COc1ccc2c(c1OCc1ccccc1)C[C@@H](C(=O)O)N(C(=O)C(c1ccccc1)c1ccccc1)C2 [OLODANRIGAN]" value_measured=4
molecule=CC(F)(F)CN1CCOc2c(nn(-c3ccccc3Cl)c2-c2ccc(Cl)cc2)C1=O value_measured=21
molecule="C=CCN1C[C@H](C(=O)N(CCCN(C)C)C(=O)NCC)C[C@@H]2c3cccc4[nH]cc(c34)C[C@H]21 [CABERGOLINE]" value_measured=1
